System: ME180 cells
assay-info: Cell cytotoxicity (MTT cell viability assay)
Assay type: cell-based
condition-parameters: Homo sapiens, ME-180, concentration giving 50% inhibition of cell viability vs control, ± SEM
pEC50: −log10 of the molar value.
Quick reference for pEC50 among some molecules
measurement-label: pEC50

[[record]]
structure_smiles_string = "O=C1C=CC(=O)N1c1ccc2c(c1)OCCO2"
result_comparator = "="
number = 3.39

[[record]]
structure_smiles_string = "O=C1C=CC(=O)N1c1ccc(-c2ccc(N3C(=O)C=CC3=O)cc2)cc1"
result_comparator = "<"
number = 4.52

[[record]]
structure_smiles_string = "O=C1C=CC(=O)N1CCN1C(=O)C=CC1=O"
result_comparator = "="
number = 3.29

[[record]]
structure_smiles_string = "N#Cc1cccc(N2C(=O)C=CC2=O)c1"
result_comparator = "="
number = 3.84


###

Test system: ME180 cells
assay-info: Cell cytotoxicity (MTT cell viability assay)
Assay type: cell-based
condition-parameters: Homo sapiens, ME-180, concentration giving 50% inhibition of cell viability vs control, ± SEM
measurement-label: EC50 (µM)

[[record]]
structure_smiles_string = "O=C1C=CC(=O)N1c1ccccc1"
display_unit = "µM"
number = 370

[[record]]
structure_smiles_string = "COC(=O)c1scc(C)c1N1C(=O)C=CC1=O"
display_unit = "µM"
number = 88

[[record]]
structure_smiles_string = "O=C1C=CC(=O)N1c1ccc(OCCOCCOCCOCCOCCOc2ccc(N3C(=O)C=CC3=O)cc2)cc1"
display_unit = "µM"
number = 125

[[record]]
structure_smiles_string = "CCOC(=O)c1ccc(N2C(=O)C=CC2=O)cc1"
display_unit = "µM"
number = 363

[[record]]
structure_smiles_string = "COCCOCCOCCOCCOc1ccc(N2C(=O)C=CC2=O)cc1"
display_unit = "µM"
number = 285

[[record]]
structure_smiles_string = "O=C1C=CC(=O)N1c1ccc(OCCOCCOCCOCCOc2ccc(N3C(=O)C=CC3=O)cc2)cc1"
display_unit = "µM"
number = 153

[[record]]
structure_smiles_string = "O=C1C=CC(=O)N1c1ccc(Nc2ccccc2)cc1"
display_unit = "µM"
number = 268

[[record]]
structure_smiles_string = "Cc1cc(N2C(=O)C=CC2=O)no1"
display_unit = "µM"
number = 858

[[record]]
structure_smiles_string = "O=C1C=CC(=O)N1CCOCCOCCOCCN1C(=O)C=CC1=O"
display_unit = "µM"
number = 333

[[record]]
structure_smiles_string = "O=C1C=CC(=O)N1C1CCCCC1"
display_unit = "µM"
number = 114


###

Tested on: human sperm
assay-info: Evaluation of human sperm motility (spermicidal efficacy), manual microscopy
Assay type: cell-based
condition-parameters: concentration giving 50% inhibition of sperm motility vs control, motility determined within 30 s by manual microscopy, ± SEM, read-out: Inhibition Human Sperm Motility (ED50)
I'd appreciate it if you marked entries met when EC50 is lower than 30 µM and not met when it is not.

[[record]]
structure_smiles_string = "O=C1C=CC(=O)N1c1ccccc1"
label = "not met"

[[record]]
structure_smiles_string = "COC(=O)c1scc(C)c1N1C(=O)C=CC1=O"
label = "met"

[[record]]
structure_smiles_string = "O=C1C=CC(=O)N1C1CCCCC1"
label = "not met"

[[record]]
structure_smiles_string = "O=C1C=CC(=O)N1c1ccc2c(c1)OCCO2"
label = "not met"

[[record]]
structure_smiles_string = "Cc1cc(N2C(=O)C=CC2=O)no1"
label = "not met"

[[record]]
structure_smiles_string = "COCCOCCOCCOCCOc1ccc(N2C(=O)C=CC2=O)cc1"
label = "not met"

[[record]]
structure_smiles_string = "O=C1C=CC(=O)N1c1ccc(OCCOCCOCCOCCOc2ccc(N3C(=O)C=CC3=O)cc2)cc1"
label = "met"

[[record]]
structure_smiles_string = "N#Cc1cccc(N2C(=O)C=CC2=O)c1"
label = "not met"

[[record]]
structure_smiles_string = "O=C1C=CC(=O)N1c1ccc(Nc2ccccc2)cc1"
label = "not met"

[[record]]
structure_smiles_string = "O=C1C=CC(=O)N1CCOCCOCCOCCN1C(=O)C=CC1=O"
label = "met"

[[record]]
structure_smiles_string = "O=C1C=CC(=O)N1c1ccc(-c2ccc(N3C(=O)C=CC3=O)cc2)cc1"
label = "met"

[[record]]
structure_smiles_string = "O=C1C=CC(=O)N1CCN1C(=O)C=CC1=O"
label = "met"

[[record]]
structure_smiles_string = "O=C1C=CC(=O)N1c1ccc(OCCOCCOCCOCCOCCOc2ccc(N3C(=O)C=CC3=O)cc2)cc1"
label = "met"

[[record]]
structure_smiles_string = "CCOC(=O)c1ccc(N2C(=O)C=CC2=O)cc1"
label = "not met"

